# method summary: Urinary excretion in rat after 8-24 hours of oral administration at 50 mg/kg
# Assay type: ADME, organism-based
# Design: dose 50 mg/kg, route oral
# protocol conditions: urine
measured quantity: dose excreted (%)

>>> print(df.to_string())
                                   molecule  result
0  O=C(O)c1cn2c3c(c(N4CCNCC4)c(F)cc3c1=O)SCC2    11.5
1  CC1Cn2cc(C(=O)O)c(=O)c3cc(F)c(N4CCN(C)CC4)c(c32)S1 (centres undefined)    5.17
2  CN1CCN(c2c(F)cc3c(=O)c(C(=O)O)cn4c3c2SCC4)CC1    15.6
3  CC1Cn2cc(C(=O)O)c(=O)c3cc(F)c(N4CCNCC4)c(c32)S1 (centres undefined)    3.12

====

# method summary: Plasma concentration level in rat after 15 hours of oral administration at 50 mg/kg
# Assay type: ADME, organism-based
# Parameters: dose 50 mg/kg, route oral
Measured concentration at 15 h values are reported for all entries that follow.
measured quantity: concentration at 15 h (ng/mL)

                                   compound      measured_quantity  result_units  result
0  CN1CCN(c2c(F)cc3c(=O)c(C(=O)O)cn4c3c2SCC4)CC1  concentration at 15 h         ng/mL     410
1  CC1Cn2cc(C(=O)O)c(=O)c3cc(F)c(N4CCN(C)CC4)c(c32)S1 (configuration not stated)  concentration at 15 h         ng/mL     270

====

Measured MIC values are reported for all entries that follow.
# Tested on: Klebsiella pneumoniae
# method summary: Minimal inhibitory concentration against Klebsiella pneumoniae ATCC 10031 strain
# Type: functional
measured quantity: MIC (µg/mL)

In [3]: df
Out[3]:
                                    compound         assayed_target  limit_operator  result
 0  CC1Cn2cc(C(=O)O)c(=O)c3cc(F)c(N4CCN(Cc5cccc(F)c5)CC4)c(c32)S1 (centres undefined)  Klebsiella pneumoniae               >      64
 1  CC1Cn2cc(C(=O)O)c(=O)c3cc(F)c(-n4ccnc4)c(c32)S1 (centres undefined)  Klebsiella pneumoniae               =    0.25
 2  O=C(O)c1cn2c3c(c(Cl)c(F)cc3c1=O)SC(c1cccc(F)c1)C2 (centres undefined)  Klebsiella pneumoniae               =       2
 3  CN1CCN(c2c(F)cc3c(=O)c(C(=O)O)cn4c3c2SC(c2ccc(F)cc2)C4)CC1 (centres undefined)  Klebsiella pneumoniae               >      64
 4  CC1CN(c2c(F)cc3c(=O)c(C(=O)O)cn4c3c2SC(C)C4)CC(C)N1 (centres undefined)  Klebsiella pneumoniae               =    0.25
 5  CC1Cn2cc(C(=O)O)c(=O)c3cc(F)c(N4CCN(Cc5ccc(F)cc5F)CC4)c(c32)S1 (centres undefined)  Klebsiella pneumoniae               >      64
 6  CCNCC1CCN(c2c(F)cc3c(=O)c(C(=O)O)cn4c3c2SC(C)C4)C1 (centres undefined)  Klebsiella pneumoniae               =    0.25
 7  CN1CCN(c2c(F)cc3c(=O)c(C(=O)O)cn4c3c2SCC4)CC1 [RUFLOXACIN]  Klebsiella pneumoniae               =    0.12
 8  CC1Cn2cc(C(=O)O)c(=O)c3cc(F)c(N4CCN(C)CC4)c(c32)S1 (centres undefined)  Klebsiella pneumoniae               =    0.25
 9  CC1Cn2cc(C(=O)O)c(=O)c3cc(F)c(Cl)c(c32)S1 (centres undefined)  Klebsiella pneumoniae               =       8
10  CC1Cn2cc(C(=O)O)c(=O)c3cc(F)c(N4CCCNCC4)c(c32)S1 (centres undefined)  Klebsiella pneumoniae               =       1
11  O=C(O)c1cn2c3c(c(Cl)c(F)cc3c1=O)SC(c1ccc(F)cc1)C2 (centres undefined)  Klebsiella pneumoniae               =    0.25
12  O=C(O)c1cn2c3c(c(N4CCNCC4)c(F)cc3c1=O)SC(c1ccc(F)cc1)C2 (centres undefined)  Klebsiella pneumoniae               =      16
13  CC1Cn2cc(C(=O)O)c(=O)c3cc(F)c(N4CCN(Cc5ccccc5C(F)(F)F)CC4)c(c32)S1 (centres undefined)  Klebsiella pneumoniae               =       8

// provenance: ChEMBL document CHEMBL1126958
